test-target: Delta-type opioid receptor (Mus musculus, UniProt P32300)
Sequence (P32300 whole entry): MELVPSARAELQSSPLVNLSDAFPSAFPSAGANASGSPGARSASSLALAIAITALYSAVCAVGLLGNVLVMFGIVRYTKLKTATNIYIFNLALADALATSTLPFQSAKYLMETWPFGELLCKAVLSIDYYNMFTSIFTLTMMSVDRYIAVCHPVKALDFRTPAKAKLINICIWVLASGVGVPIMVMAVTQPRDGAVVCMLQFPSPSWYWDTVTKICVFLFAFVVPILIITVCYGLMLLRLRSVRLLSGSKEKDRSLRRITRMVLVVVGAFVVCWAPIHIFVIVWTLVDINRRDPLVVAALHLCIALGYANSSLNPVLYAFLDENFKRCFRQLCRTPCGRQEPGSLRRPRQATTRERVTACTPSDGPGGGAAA
experiment-description: Antagonist activity against Opioid receptor delta 1 in mouse vas deferens assay
Could you mark each record yes (1) if its Kb falls strictly under 2 nM, and no (0) if it equals or exceeds it?

Exercise: Consider the compound "CN[C@@H](Cc1c(C)cc(O)cc1C)C(=O)N1Cc2ccccc2C[C@H]1C(=O)N[C@@H](C)C(=O)O" . Is its Kb strictly less than 2 nM?
Solution: yes (1)

Exercise: Here's an entry: Cc1cc(O)cc(C)c1C[C@@H](C(=O)N1Cc2ccccc2CC1C(N)=O)N(C)C (stereo not given in full) . Is its Kb below 2 nM?
Solution: yes (1)

Exercise: Input CN[C@H](Cc1c(C)cc(O)cc1C)C(=O)N1Cc2ccccc2CC1C(=O)O (stereo not given in full) ; condition: Kb strictly below 2 nM. Does it hold?
Solution: no (0)

Exercise: Given CN[C@@H](Cc1c(C)cc(O)cc1C)C(=O)N1Cc2ccccc2CC1C(=O)O (stereo not given in full) , is recorded Kb strictly lower than 2 nM?
Solution: no (0)

Exercise: I wonder whether Cc1cc(O)cc(C)c1C[C@@H](C(=O)N1Cc2ccccc2CC1C(=O)O)N(C)C (stereo not given in full) has Kb below 2 nM. Can you tell?
Solution: yes (1)

====

test-target: Opioid receptors; mu & delta (Rattus norvegicus) (UniProt P33533+P33535)
Sequence (P33533 whole entry, looked up): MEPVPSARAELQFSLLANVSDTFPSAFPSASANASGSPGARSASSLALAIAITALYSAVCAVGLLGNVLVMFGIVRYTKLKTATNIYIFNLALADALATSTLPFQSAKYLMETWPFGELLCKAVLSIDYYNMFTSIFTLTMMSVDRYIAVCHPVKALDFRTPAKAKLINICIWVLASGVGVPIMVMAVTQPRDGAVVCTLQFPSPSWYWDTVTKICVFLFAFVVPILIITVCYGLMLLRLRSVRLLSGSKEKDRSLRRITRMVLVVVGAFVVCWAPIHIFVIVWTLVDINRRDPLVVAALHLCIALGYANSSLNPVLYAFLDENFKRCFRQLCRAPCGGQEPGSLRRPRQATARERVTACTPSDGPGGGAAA
Sequence (P33535 whole entry, looked up): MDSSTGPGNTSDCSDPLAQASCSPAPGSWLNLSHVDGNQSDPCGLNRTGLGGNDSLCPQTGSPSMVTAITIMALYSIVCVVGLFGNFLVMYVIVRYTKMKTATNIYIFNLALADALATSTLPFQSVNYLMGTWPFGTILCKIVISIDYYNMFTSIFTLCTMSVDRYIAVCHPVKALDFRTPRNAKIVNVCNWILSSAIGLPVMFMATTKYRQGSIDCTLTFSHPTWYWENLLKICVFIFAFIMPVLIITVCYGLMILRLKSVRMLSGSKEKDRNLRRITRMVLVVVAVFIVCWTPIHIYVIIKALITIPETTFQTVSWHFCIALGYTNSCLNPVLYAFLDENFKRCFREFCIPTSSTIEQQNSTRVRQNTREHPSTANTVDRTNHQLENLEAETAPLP
experiment-description: Ratio of the affinity for delta and mu opioid receptors (Ki mu/Ki delta) shows delta opioid receptor selectivity
Assay type: protein assay
Where a SMILES comes first, the peptide text is derived from it. [ ]: non-standard residue; d: D form. NMeY = CN[CH](Cc1ccc(O)cc1)C(=O)O; Tic = O=C(O)[CH]1Cc2ccccc2CN1
Kindly supply the reported Ratio values for the records listed here.
API note: the answer field is a bare number with no unit suffix.

Exercise: Item under review: "CN[C@H](Cc1c(C)cc(O)cc1C)C(=O)N1Cc2ccccc2C[C@H]1C(=O)N[C@@H](C)C(=O)O" . Reported Ratio?
Solution: 181

Exercise: Which Ratio is listed for Cc1cc(O)cc(C)c1CC(C)C(=O)N1Cc2ccccc2CC1C(=O)O (configuration not stated) ?
Solution: 55

Exercise: Give its Ratio value. Item: "Cc1cc(O)cc(C)c1C[C@@H](C(=O)N1Cc2ccccc2C[C@H]1C(=O)N[C@@H](C)C(=O)O)N(C)C"
Solution: 20000

Exercise: // query Ratio value for entry Cc1cc(O)cc(C)c1C[C@@H](C(=O)N1Cc2ccccc2CC1C(N)=O)N(C)C (some centres not stated)
Solution: 1660

Exercise: Which value of Ratio has been reported for "CN[C@@H](Cc1c(C)cc(O)cc1C)C(=O)N1Cc2ccccc2C[C@H]1C(=O)N[C@@H](C)C(=O)O" in the records?
Solution: 43000

Exercise: # input compound: CN[C@H](Cc1c(C)cc(O)cc1C)C(=O)N1Cc2ccccc2CC1C(=O)O (some centres not stated) ; wanted: its Ratio
Solution: 628

Exercise: Fill blank: measured Ratio of the compound CNC(Cc1ccc(O)cc1)C(=O)N1Cc2ccccc2CC1C(=O)O (configuration not stated) (H-[NMeY]-[Tic]-OH; configuration not given here) is ____.
Solution: 166

Exercise: # Ratio lookup, item CN[C@H](Cc1c(C)cc(O)cc1C)C(=O)N1Cc2ccccc2CC1C(N)=O (some centres not stated)
Solution: 119

Exercise: // Ratio lookup, key: CN(C)[C@@H](Cc1ccc(O)cc1)C(=O)N1Cc2ccccc2CC1C(=O)O (some centres not stated)
Solution: 265

Exercise: I have this compound here, CN[C@@H](Cc1c(C)cc(O)cc1C)C(=O)N1Cc2ccccc2CC1C(N)=O (some centres not stated) , and I need its recorded Ratio.
Solution: 2490

Exercise: Need Ratio, item N[C@@H](Cc1ccc(O)cc1)C(=O)N1Cc2ccccc2C[C@H]1C(=O)O (H-Tyr-[Tic]-OH)
Solution: 148

Exercise: Return reported Ratio; argument: "Cc1cc(O)cc(C)c1C[C@H](C(=O)N1Cc2ccccc2C[C@H]1C(=O)N[C@@H](C)C(=O)O)N(C)C"
Solution: 176

Exercise: Requested read-out: Ratio. Entry: Cc1cc(O)cc(C)c1C[C@H](C(=O)N1Cc2ccccc2CC1C(=O)O)N(C)C (some centres not stated)
Solution: 2280

Exercise: Need Ratio, item "Cc1cc(O)cc(C)c1C[C@@H](N)C(=O)N1Cc2ccccc2C[C@H]1C(=O)N[C@@H](C)C(=O)O"
Solution: 197

Exercise: Which Ratio is listed for Cc1cc(O)cc(C)c1C[C@H](N)C(=O)N1Cc2ccccc2C[C@H]1C(=O)NC(C)C(=O)O (some centres not stated) ?
Solution: 20400

Exercise: Requested field: Ratio. Item: Cc1cc(O)cc(C)c1C[C@@H](C(=O)N1Cc2ccccc2CC1C(=O)O)N(C)C (some centres not stated)
Solution: 20600

Exercise: Ratio lookup needed for CN[C@@H](Cc1c(C)cc(O)cc1C)C(=O)N1Cc2ccccc2CC1C(=O)O (some centres not stated) , thanks.
Solution: 1870
